- Assay explanation: Human HepG2 cell viability assay in 384 well format
- Format: toxicity, cell-based
- Set-up: dose 125 nL, time 70.5 hour; concentration not given beside the values
- Stated conditions: HepG2 cells, read-out: Inhibition
Experimental readout: cytotoxicity at 70.5 h (%)
Expressed in %, but write only the number.

Entry CO[C@H]1CCN(C(=O)c2ccsc2)[C@@H]2CN(CC3CC3)C[C@H]12 has what cytotoxicity at 70.5 h?
-7.14

###

- Assay explanation: Human HepG2 cell viability assay in 384 well format
- Type: toxicity, cell-based
- Parameters: dose 125 nL, time 70.5 hour; concentration not given beside the values
- Stated conditions: HepG2 cells, read-out: Inhibition
# maps each entry to its cytotoxicity at 70.5 h
Expressed in %, but write only the number.

CC(=O)N1CC(C(=O)NC(C)c2cnn(C)c2C)C1 (stereo not drawn): -4.41
CNC(=O)[C@@]12CCC3(CCN(C(=O)COC)CC3)[C@@H]1CN(S(C)(=O)=O)C2: 4.47
COCCN1CCCC(Cc2cnc(-c3c(C)nn(C)c3C)cn2)C1 (stereo not drawn): -5.51

Entry CSC1=Nc2c(cnn2-c2ccc(Cl)cc2)C2=NCCCN12 has what cytotoxicity at 70.5 h?
-7.03

Entry C=C(C)CNc1ccc(C(=O)N(CC)Cc2nccn2C)cn1 has what cytotoxicity at 70.5 h?
25.1

###

# maps each entry to its cytotoxicity at 70.5 h
- Assay explanation: Human HepG2 cell viability assay in 384 well format
- Assay type: toxicity, cell-based
- Design: dose 125 nL, time 70.5 hour; concentration not given beside the values
- Stated conditions: HepG2 cells, read-out: Inhibition
Expressed in %, but write only the number.

Consider the reported cytotoxicity at 70.5 h for these compounds:
c1cc(CNCC2CNc3ccnn3C2)cc(N2CCCCC2)n1 (stereo unspecified): 25.3
O=C(NCCNS(=O)(=O)c1cc(F)cc(F)c1)c1ccoc1: -8.89
Cc1ccsc1CCNC(=O)CCC1CCCCN1C (stereo unspecified): -15

Entry COc1cccc(CN2CCC3(COCc4cnc(N(C)C)nc43)C2)c1 (stereo unspecified) has what cytotoxicity at 70.5 h?
1.22

Entry COc1ccc2c(c1)nc1n2[C@@H](CNC(=O)c2ccccn2)COC1 has what cytotoxicity at 70.5 h?
-7.73

Entry CN(C)S(=O)(=O)NCCn1nc(-c2ccccc2)n(C)c1=O has what cytotoxicity at 70.5 h?
-4.25

Entry COCCNc1ccc(CNC(=O)Nc2cn[nH]c2)cc1 has what cytotoxicity at 70.5 h?
-16.6

###

# maps each entry to its cytotoxicity at 70.5 h
- Assay explanation: Human HepG2 cell viability assay in 384 well format
- Assay type: toxicity, cell-based
- Set-up: dose 125 nL, time 70.5 hour; concentration not given beside the values
- Stated conditions: HepG2 cells, read-out: Inhibition
Expressed in %, but write only the number.

Consider the reported cytotoxicity at 70.5 h for these molecules:
O=C(COCC1CC1)N1CCN(C(=O)Cc2ccccn2)CC1: -1.46
CN(C)CCN1CCC2(CCCN(C(=O)C3CCC3)C2)CC1: -1.03
c1ccc2oc(N3CCC(c4nncn4C4CC4)CC3)nc2c1: 29.8
CN(CC(C)(CO)CO)C(=O)Nc1cc(F)cc(F)c1: 2.39
Cc1cc(C(=O)N(C)S(=O)(=O)C(C)C)ccc1F: -4.29

Entry Cc1nc2c(c(=O)[nH]1)CCN(C(=O)c1cccc3nccnc13)C2 has what cytotoxicity at 70.5 h?
0.0996

Entry c1cncc(N2CCOCC3(CN(Cc4cccs4)CCO3)C2)c1 (centres undefined) has what cytotoxicity at 70.5 h?
19.2

Entry O=C(C1CCC1)N1CCN(Cc2cccnc2)[C@H]2CS(=O)(=O)C[C@H]21 has what cytotoxicity at 70.5 h?
-2.54

Entry Cc1noc(COCC(=O)Nc2cc(C)c(Br)cn2)n1 has what cytotoxicity at 70.5 h?
4.04
